Test system: MOLT-4 leukemia
assay_procedure: NCI tumour cell line growth inhibition, 48 h
Measured TGI values are reported for all entries that follow.

Example molecules with recorded TGI:
molecule	value_kind	measured
CC1(C)CCc2c(c3c(c4c(=O)c(O)c(-c5ccc(O)cc5)oc24)OC(C)(C)CC3)O1	TGI	> 100 µM
Nc1ccccc1SC(C[N+](=O)[O-])c1ccc2c(c1)OCO2 (centres undefined)	TGI	6.66 µM
COc1ccc2c(c1)/C(=C/c1c(C)nc3sc(C)nn13)C(=O)N2	TGI	> 100 µM
N=c1n(C(=O)N2CCCC2)c2cc(Cl)ccc2n1C1=NCCN1	TGI	> 100 µM
Cc1ccc(SCC(CSCCO)OCn2cnc3c2NC(N)=NC32OCCO2)cc1 (centres undefined)	TGI	> 100 µM
O=C1C(=O)N(c2ccc(Cl)cc2Cl)C(=O)C(=O)C1c1nc2ccccc2s1	TGI	> 89.2 µM

Kindly state the measured TGI obtained for CC(=O)NNc1nc(C)c(C(=O)NNC(=O)C(=O)Nc2ccc(Cl)cc2)s1 with MOLT-4 leukemia. > 100 µM

Proceed to CN1C(=O)C(C)(C)C2(SC(C)(C)C2(C)C)N(C)C1=S (centres undefined) > 100 µM

Proceed to CC1C=C(CCCCCCCCCCCC[C@@H](O)[C@@H]2CC[C@@H]([C@@H]3CC[C@@H](C(O)CCCCCCCCCCCCC4=C[C@H](C)OC4=O)O3)O2)C(=O)O1 (some centres undefined) > 100 µM

---

Test system: SF-268 CNS
assay_procedure: NCI tumour cell line growth inhibition, 48 h
value_kind: TGI

molecule	TGI
CC(C)/C(Cl)=N\OC(=O)Nc1ccc(S(N)(=O)=O)cc1	51.7 µM
Cn1cnc([N+](=O)[O-])c1Sc1nnc(-c2cccnc2)n1C	> 95.7 µM
N#CCCN(CCC#N)c1ccc(/C=C2\N=C(c3cc([N+](=O)[O-])ccc3Cl)OC2=O)cc1	> 100 µM
COC(CN1C(=O)c2cccc3cccc(c23)C1=O)OC	> 100 µM
COC(=O)C1CCC(=O)N1C(c1ccccc1)c1ccc(OC)c(OC)c1 (stereo not given)	> 100 µM

Kindly state the measured TGI obtained for Clc1cc(OC2C3CC4CC(C3)CC2C4)nc(Cl)n1 (stereo not given) with SF-268 CNS. 49.1 µM

Proceed to O=C(O)c1ccccc1[Se][Se]c1ccccc1C(=O)O > 100 µM

Proceed to CC(=O)NNc1nc(C)c(C(=O)NNC(=O)C(=O)Nc2c(Cl)cc([N+](=O)[O-])cc2Cl)s1 86.1 µM

Proceed to COc1ccc(-c2nc3sccn3c2/C(N)=N/C(=N)N)cc1OC > 100 µM

Proceed to Cc1cc(C)nc(NS(=O)(=O)c2ccc(NC(=O)c3ccc(Cl)c4c(Nc5ccc(S(=O)(=O)Nc6nc(C)cc(C)n6)cc5)c5ccccc5nc34)cc2)n1 > 100 µM

---

System: K-562 leukemia
assay_procedure: NCI tumour cell line growth inhibition, 48 h; in the data active = GI50 below about 0.43 µM; inactive = the rest
# valid calls are true (active), false (inactive); nothing else

As a guide, the following entries are already answered.
compound	class_assignment
OCc1ccc(N2CCC2c2ccc(F)cc2)cc1Cl (stereo not drawn)	false
COc1ccc2c(c1)/C(=C/c1c(C)nc3sc(C)nn13)C(=O)N2	true
COc1ccc(-c2nc3sccn3c2/C(N)=N/C(=N)N)cc1OC	false
COC1=CC(=O)c2nc(-c3ccncc3)[nH]c2C1=O	false
COc1ccc2c(C3=C(c4cn(C)c5ccccc45)C(=O)NC3=O)cn(C)c2c1	true
CC1(C)CCc2c(c3c(c4c(=O)c(O)c(-c5ccc(O)cc5)oc24)OC(C)(C)CC3)O1	false
COC(=O)[C@@H]1[C@H](O)[C@H](C)[C@H](O)[C@@](C)(O)/C=C\C=C(C)C(=O)Nc2c(C)c(OC(C)=O)c3c(c2O)C(=O)C(C)=C2OCOC(=C23)C(C)=C[C@@](C)(O)[C@H](O)[C@@H](C)[C@H]1OC(C)=O	false

Could you now look at the following compound, please?
I would be grateful if you could indicate the recorded call for O=C1CC(c2ccc3c(c2)OCO3)Nc2ccccc21 (stereo not drawn) . false
